TESTED_TARGET: eeAChE (Electrophorus electricus, UniProt O42275)
Construct: the acetylcholinesterase enzymes used were obtained from an electric eel; from tissue; host or cells: electric eel
Sequence (O42275 24-633): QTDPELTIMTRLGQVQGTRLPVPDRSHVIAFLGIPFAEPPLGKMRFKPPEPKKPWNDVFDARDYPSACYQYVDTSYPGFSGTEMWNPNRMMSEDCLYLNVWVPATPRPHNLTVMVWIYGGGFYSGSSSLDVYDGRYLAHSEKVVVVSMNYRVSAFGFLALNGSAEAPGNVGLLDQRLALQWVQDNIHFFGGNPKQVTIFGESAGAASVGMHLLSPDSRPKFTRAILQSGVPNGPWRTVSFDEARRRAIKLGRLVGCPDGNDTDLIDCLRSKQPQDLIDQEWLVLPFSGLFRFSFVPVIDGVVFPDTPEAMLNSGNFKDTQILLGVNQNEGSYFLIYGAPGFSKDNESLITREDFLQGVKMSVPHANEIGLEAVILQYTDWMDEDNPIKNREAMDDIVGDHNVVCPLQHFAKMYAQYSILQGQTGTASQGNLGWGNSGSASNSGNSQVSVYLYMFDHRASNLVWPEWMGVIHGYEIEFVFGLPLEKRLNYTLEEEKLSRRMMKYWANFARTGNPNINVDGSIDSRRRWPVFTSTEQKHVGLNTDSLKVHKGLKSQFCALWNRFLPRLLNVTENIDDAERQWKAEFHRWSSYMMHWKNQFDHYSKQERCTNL
ASSAY_COMMENT: biochemical
ASSAY_METRIC: IC50

// IC50 value for COc1ccc(-c2oc3cc(O)ccc3c(=O)c2O)cc1OC : 1370 nM

---

TESTED_TARGET: eqBChE (Equus caballus)
Construct: The butyrylcholinesterase (BChE) is obtained from equine serum
Sequence (P81908 whole entry): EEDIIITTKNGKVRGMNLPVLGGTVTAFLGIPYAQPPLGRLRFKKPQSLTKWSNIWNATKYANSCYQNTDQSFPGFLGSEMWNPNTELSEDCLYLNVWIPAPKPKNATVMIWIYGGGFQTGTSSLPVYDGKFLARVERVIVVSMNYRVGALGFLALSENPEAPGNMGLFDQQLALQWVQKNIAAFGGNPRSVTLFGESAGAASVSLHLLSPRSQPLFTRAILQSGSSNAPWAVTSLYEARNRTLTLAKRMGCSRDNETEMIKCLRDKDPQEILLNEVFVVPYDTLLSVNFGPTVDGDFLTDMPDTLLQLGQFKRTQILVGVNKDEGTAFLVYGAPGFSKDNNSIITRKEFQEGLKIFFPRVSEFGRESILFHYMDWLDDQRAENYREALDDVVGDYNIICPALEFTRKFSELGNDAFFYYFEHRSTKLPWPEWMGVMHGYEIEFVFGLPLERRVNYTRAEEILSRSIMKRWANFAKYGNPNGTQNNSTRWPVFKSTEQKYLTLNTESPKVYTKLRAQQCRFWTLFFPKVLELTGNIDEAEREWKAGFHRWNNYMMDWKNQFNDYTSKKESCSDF
ASSAY_COMMENT: Anti-cholinesterase assay (DTNB, spectrophotometric), BChE
ASSAY_METRIC: IC50 (nM)
Please give a number only; it is taken to be in nM.

# lookup: COc1ccc(-c2oc3cc(O)ccc3c(=O)c2O)cc1OC [Isolated flavone] on eqBChE (Equus caballus), IC50 = 950

---

TESTED_TARGET: Human recombinant MAO-B (Homo sapiens, UniProt P27338)
Sequence (P27338 whole entry): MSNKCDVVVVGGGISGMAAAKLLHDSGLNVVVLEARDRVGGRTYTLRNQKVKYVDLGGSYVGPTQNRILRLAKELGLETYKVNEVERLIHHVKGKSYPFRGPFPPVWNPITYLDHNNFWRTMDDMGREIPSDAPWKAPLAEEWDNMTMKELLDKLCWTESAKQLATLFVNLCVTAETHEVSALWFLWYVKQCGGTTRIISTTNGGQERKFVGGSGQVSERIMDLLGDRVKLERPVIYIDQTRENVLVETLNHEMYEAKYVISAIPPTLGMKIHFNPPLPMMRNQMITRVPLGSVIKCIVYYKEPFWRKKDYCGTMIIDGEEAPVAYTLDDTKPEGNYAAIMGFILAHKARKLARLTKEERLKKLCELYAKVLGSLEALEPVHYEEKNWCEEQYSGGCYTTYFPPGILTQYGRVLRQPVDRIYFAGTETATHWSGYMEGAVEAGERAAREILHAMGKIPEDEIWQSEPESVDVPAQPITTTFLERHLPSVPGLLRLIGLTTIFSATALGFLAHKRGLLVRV
ASSAY_COMMENT: MAO-B inhibition assay (Amplex Red)
ASSAY_METRIC: IC50 (nM)
Please give a number only; it is taken to be in nM.

// IC50 value for COc1ccc(-c2oc3cc(O)ccc3c(=O)c2O)cc1OC : 140
